# targetOrSystem: LCK (human)
# testMethodNotes: radiometric filter-binding kinase assay, Kinase HotSpot
# studyConditions: compound 0.5 µM; ATP 10 µM
Hi! Just check whether residual activity is below 90%. Below gives true, equal or above gives false.

Study these solved cases before continuing.
# moleculeSmiles, targetOrSystem, assignedCategory
records = [
    ("CCCNC(=O)Nc1ccc(Oc2ncnc3cc(OC)c(OC)cc23)cc1Cl", "LCK (human)", "true"),
    ("O=c1cc(N2CCNCC2)oc2c(-c3ccccc3)cccc12", "LCK (human)", "false"),
    ("CCN1/C(=C/C(C)=O)Sc2ccc(OC)cc21", "LCK (human)", "false"),
    ("Cc1ccc(NC(=O)c2ccc(CN3CCN(C)CC3)cc2)cc1Nc1nc(-c2cccnc2)cs1", "LCK (human)", "true"),
    ("COc1cc2nccc(Oc3ccc(NC(=S)NC(=O)c4ccccc4C)cc3)c2cc1OC", "LCK (human)", "true"),
]

Dear reviewer, please state whether Clc1ccc(Nc2nnc(Cc3ccncc3)c3ccccc23)cc1 has residual activity strictly beneath 90%.
true

Take the compound O=c1cc(-c2cccc3c2Sc2ccccc2S3)oc(N2CCOCC2)c1 and say whether its residual activity is less than 90%.
false

# check: residual activity < 90% for NC(=O)c1ccc(N(C(N)=O)c2c(F)cccc2F)nc1-c1ccc(F)cc1F
true

Threshold test, residual activity < 90%: CC(C)n1cnc2c(Nc3cccc(Cl)c3)nc(NCCO)nc21
true

----------
# residual activity listing for each entry below
# targetOrSystem: TAOK2 (human) (UniProt Q9UL54)
# Sequence (Q9UL54 whole entry, looked up): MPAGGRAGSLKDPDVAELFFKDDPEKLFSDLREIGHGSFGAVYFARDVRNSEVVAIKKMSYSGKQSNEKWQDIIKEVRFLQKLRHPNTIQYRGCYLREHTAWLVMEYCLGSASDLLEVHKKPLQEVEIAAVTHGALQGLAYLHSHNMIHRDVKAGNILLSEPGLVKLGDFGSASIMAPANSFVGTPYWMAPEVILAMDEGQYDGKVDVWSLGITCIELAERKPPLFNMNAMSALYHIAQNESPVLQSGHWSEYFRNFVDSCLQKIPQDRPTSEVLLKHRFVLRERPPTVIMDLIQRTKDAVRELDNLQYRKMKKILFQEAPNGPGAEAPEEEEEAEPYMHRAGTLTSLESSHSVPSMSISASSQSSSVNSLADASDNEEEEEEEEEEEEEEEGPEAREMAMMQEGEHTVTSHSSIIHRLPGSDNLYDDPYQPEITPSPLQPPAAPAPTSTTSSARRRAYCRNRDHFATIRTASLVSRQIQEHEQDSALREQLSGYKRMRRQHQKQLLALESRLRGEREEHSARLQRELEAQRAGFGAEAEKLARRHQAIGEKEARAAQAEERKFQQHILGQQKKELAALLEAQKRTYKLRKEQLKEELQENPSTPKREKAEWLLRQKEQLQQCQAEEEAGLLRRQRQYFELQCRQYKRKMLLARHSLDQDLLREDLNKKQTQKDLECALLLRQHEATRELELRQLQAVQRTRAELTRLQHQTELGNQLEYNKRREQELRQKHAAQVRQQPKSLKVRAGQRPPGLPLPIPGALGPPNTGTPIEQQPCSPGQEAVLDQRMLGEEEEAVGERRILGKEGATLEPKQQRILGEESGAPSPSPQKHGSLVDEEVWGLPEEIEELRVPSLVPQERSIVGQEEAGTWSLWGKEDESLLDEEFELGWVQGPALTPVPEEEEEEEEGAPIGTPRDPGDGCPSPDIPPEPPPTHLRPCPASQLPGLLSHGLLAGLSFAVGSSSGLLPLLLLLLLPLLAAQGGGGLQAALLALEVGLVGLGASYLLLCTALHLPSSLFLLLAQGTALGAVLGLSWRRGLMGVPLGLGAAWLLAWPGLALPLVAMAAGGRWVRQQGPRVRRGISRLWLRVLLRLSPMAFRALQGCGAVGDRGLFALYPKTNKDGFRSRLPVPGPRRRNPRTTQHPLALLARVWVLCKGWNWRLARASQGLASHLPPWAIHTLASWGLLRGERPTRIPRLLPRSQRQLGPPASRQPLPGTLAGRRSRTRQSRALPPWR
# testMethodNotes: radiometric filter-binding kinase assay, Kinase HotSpot
# studyConditions: compound 0.5 µM; ATP 10 µM
Write the value in % as a bare number.

Below, each entry is followed by its recorded residual activity result.
# compound, targetOrSystem, measurementKind, observedMeasurement
records = [
    ("Nc1n[nH]c2nnc(-c3c(-c4ccccc4)nn4ccccc34)cc12", "TAOK2 (human) (UniProt Q9UL54)", "residual activity", 101),
    ("CCN1/C(=C/C(C)=O)Sc2ccc(OC)cc21", "TAOK2 (human) (UniProt Q9UL54)", "residual activity", 101),
    ("Cc1ccc(NC(=O)c2ccc(CN3CCN(C)CC3)cc2)cc1Nc1nc(-c2cccnc2)cs1", "TAOK2 (human) (UniProt Q9UL54)", "residual activity", 91.6),
    ("NC(=O)c1ccc(N(C(N)=O)c2c(F)cccc2F)nc1-c1ccc(F)cc1F", "TAOK2 (human) (UniProt Q9UL54)", "residual activity", 98.7),
    ("O=C(NC(NC(=S)Nc1ccc(F)c([N+](=O)[O-])c1)C(Cl)(Cl)Cl)C(c1ccccc1)c1ccccc1 (stereo not given)", "TAOK2 (human) (UniProt Q9UL54)", "residual activity", 103),
]

Value (residual activity, TAOK2 (human) (UniProt Q9UL54)) for record O=c1cc(N2CCNCC2)oc2c(-c3ccccc3)cccc12 = 98.3

Value (residual activity, TAOK2 (human) (UniProt Q9UL54)) for record Nc1nc(Nc2ccc(S(N)(=O)=O)cc2)nn1C(=S)Nc1c(F)cccc1F = 11.5

The compound COc1cc2nccc(Oc3ccc(NC(=S)NC(=O)c4ccccc4C)cc3)c2cc1OC , tested on TAOK2 (human) (UniProt Q9UL54), showed residual activity of 91.9

residual activity for TAOK2 (human) (UniProt Q9UL54) with input O=C1Cc2c([nH]c3ccc([N+](=O)[O-])cc23)-c2ccccc2N1 equals 88.9

Reported TAOK2 (human) (UniProt Q9UL54) residual activity for item CS(=O)c1ccc(-c2nc(-c3ccc(F)cc3)c(-c3ccncc3)[nH]2)cc1 (stereo not given) was 94

C#Cc1cccc(Nc2ncnc3cc(OCCOC)c(OCCOC)cc23)c1 on TAOK2 (human) (UniProt Q9UL54) gives residual activity = 106

Item: CC(C)[C@H](CO)Nc1nc(Nc2cccc(Cl)c2)c2ncn(C(C)C)c2n1 | System: TAOK2 (human) (UniProt Q9UL54) | residual activity: 91.3

----------
# targetOrSystem: NEK6 (human)
# testMethodNotes: radiometric filter-binding kinase assay, Kinase HotSpot
# studyConditions: compound 0.5 µM; ATP 10 µM
Listed compounds paired with reported residual activity
Report as a plain number; the unit % is understood.

Record CCN1/C(=C/C(C)=O)Sc2ccc(OC)cc21 , field residual activity: 109

So, CC(C)(C)c1nc2c3ccc(F)cc3c3c(=O)[nH]ccc3c2[nH]1 ? Its residual activity was 82.5

Quick note, residual activity for O=C1Nc2cc(Br)ccc2/C1=C1/Nc2ccccc2/C1=N\O landed at 99.9

Value of residual activity reported for the compound CCCNC(=O)Nc1ccc(Oc2ncnc3cc(OC)c(OC)cc23)cc1Cl is 105

Lookup result for Nc1nc(Nc2ccc(S(N)(=O)=O)cc2)nn1C(=S)Nc1c(F)cccc1F ; measured residual activity: 78.8

----------
# targetOrSystem: RPS6KA3 KD1 KD2 (human) (UniProt P51812)
# Sequence (P51812 whole entry, looked up): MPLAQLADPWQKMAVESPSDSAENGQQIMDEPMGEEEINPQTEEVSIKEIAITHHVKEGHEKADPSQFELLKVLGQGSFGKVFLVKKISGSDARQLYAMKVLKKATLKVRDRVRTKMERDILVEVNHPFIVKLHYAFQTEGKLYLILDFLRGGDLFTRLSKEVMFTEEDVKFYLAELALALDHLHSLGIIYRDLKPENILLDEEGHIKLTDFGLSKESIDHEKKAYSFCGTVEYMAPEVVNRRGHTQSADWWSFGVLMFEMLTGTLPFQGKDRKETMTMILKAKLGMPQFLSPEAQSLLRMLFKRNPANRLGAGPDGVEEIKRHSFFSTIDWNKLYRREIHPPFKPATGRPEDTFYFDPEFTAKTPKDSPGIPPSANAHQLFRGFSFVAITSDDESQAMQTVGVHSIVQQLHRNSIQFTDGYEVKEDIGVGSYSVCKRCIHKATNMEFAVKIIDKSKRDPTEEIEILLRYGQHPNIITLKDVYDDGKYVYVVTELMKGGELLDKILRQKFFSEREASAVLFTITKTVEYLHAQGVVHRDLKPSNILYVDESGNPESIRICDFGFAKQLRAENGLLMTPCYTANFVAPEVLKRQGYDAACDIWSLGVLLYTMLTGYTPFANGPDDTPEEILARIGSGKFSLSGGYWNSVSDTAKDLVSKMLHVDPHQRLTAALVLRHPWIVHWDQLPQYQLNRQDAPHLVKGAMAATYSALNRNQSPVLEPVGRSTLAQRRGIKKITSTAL
# testMethodNotes: radiometric filter-binding kinase assay, Kinase HotSpot
# studyConditions: compound 0.5 µM; ATP 10 µM
measurementKind: residual activity

# moleculeSmiles, residual activity
records = [
    ("Cc1ccc(NC(=O)c2ccc(CN3CCN(C)CC3)cc2)cc1Nc1nc(-c2cccnc2)cs1", "93.6%"),
]

Field residual activity (entry NC(=O)c1ccc(N(C(N)=O)c2c(F)cccc2F)nc1-c1ccc(F)cc1F ) reads 99.8%

Lab note: measured residual activity of C#Cc1cccc(Nc2ncnc3cc(OCCOC)c(OCCOC)cc23)c1 was 100%

----------
# targetOrSystem: UniProt P07333
# Sequence (P07333 whole entry, looked up): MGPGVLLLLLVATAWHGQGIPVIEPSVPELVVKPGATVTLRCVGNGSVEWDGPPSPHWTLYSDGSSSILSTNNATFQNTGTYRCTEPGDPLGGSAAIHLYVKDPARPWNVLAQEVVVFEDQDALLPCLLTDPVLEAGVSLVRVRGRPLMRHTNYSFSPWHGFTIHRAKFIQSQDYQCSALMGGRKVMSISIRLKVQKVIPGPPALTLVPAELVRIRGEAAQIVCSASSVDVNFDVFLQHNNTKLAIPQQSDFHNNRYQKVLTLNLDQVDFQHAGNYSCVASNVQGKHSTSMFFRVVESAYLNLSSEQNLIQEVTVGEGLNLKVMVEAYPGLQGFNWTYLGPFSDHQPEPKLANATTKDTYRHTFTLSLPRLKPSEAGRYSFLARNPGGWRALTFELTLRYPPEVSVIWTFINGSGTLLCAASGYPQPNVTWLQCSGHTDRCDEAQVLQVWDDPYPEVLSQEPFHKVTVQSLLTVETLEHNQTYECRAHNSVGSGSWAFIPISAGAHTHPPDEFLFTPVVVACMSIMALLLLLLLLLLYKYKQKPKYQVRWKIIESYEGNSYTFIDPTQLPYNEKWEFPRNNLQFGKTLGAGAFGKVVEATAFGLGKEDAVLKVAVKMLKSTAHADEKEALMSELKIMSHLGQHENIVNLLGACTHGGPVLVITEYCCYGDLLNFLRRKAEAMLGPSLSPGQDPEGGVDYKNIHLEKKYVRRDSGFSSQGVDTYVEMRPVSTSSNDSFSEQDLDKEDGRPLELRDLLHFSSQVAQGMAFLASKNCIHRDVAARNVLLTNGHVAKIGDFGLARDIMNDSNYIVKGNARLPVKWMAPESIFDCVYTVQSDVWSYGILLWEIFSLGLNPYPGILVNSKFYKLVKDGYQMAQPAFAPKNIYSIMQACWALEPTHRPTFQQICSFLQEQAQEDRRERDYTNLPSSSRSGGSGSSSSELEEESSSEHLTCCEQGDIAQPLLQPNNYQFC
# testMethodNotes: radiometric filter-binding kinase assay, Kinase HotSpot
# studyConditions: compound 0.5 µM; ATP 10 µM
I'd appreciate it if you marked entries Fulfilled when residual activity is lower than 50% and Not fulfilled when it is not.

Study these solved cases before continuing.
# moleculeSmiles, assignedCategory
rows = [
    ("O=c1cc(N2CCNCC2)oc2c(-c3ccccc3)cccc12", "Not fulfilled"),
    ("Nc1nc(Nc2ccc(S(N)(=O)=O)cc2)nn1C(=S)Nc1c(F)cccc1F", "Fulfilled"),
    ("CC(C)n1cnc2c(Nc3cccc(Cl)c3)nc(NCCO)nc21", "Not fulfilled"),
    ("CCN1/C(=C/C(C)=O)Sc2ccc(OC)cc21", "Not fulfilled"),
]

# strict comparison: is reported residual activity < 50%? input = COc1ccc(-c2cnc3c(-c4ccsc4)cnn3c2)cc1
Not fulfilled

----------
# targetOrSystem: UniProt P19784
# Sequence (P19784 whole entry, looked up): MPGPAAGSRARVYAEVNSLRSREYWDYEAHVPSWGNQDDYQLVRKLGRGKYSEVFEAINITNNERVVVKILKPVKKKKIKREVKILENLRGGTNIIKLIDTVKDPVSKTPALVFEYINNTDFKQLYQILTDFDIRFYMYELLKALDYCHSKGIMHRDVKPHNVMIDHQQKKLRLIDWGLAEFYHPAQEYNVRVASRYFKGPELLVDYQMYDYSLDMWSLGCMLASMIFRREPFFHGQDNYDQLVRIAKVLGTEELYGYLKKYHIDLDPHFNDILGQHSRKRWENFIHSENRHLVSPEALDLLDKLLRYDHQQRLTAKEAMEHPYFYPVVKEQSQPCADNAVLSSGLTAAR
# testMethodNotes: radiometric filter-binding kinase assay, Kinase HotSpot
# studyConditions: compound 0.5 µM; ATP 10 µM
Each record here notes measured residual activity.
Quote the value and follow it with the unit of measurement.

# molecule, residual activity
records = [
    ("Clc1ccc(Nc2nnc(Cc3ccncc3)c3ccccc23)cc1", "106%"),
    ("CSc1nc(-c2ccc(F)cc2)c(-c2ccnc(NC(C)c3ccccc3)c2)[nH]1 (configuration not stated)", "88.8%"),
]

Field: next molecule
Lookup result for Nc1nc(Nc2ccc(S(N)(=O)=O)cc2)nn1C(=O)c1c(F)cccc1F ; measured residual activity: 97.5%

----------
# targetOrSystem: CSNK1D (human)
# testMethodNotes: radiometric filter-binding kinase assay, Kinase HotSpot
# studyConditions: compound 0.5 µM; ATP 10 µM
measurementKind: residual activity (%)
Write the number in % without appending the unit.

# molecule, targetOrSystem, measurementKind, observedMeasurement
rows = [
    ("Clc1ccc(Nc2nnc(Cc3ccncc3)c3ccccc23)cc1", "CSNK1D (human)", "residual activity", 92.2),
    ("Cc1cc2ncc(-c3ccccc3)nc2cc1C", "CSNK1D (human)", "residual activity", 90.7),
    ("O=C1Nc2ccccc2/C1=C\\c1c(Cl)[nH]c2ccccc12", "CSNK1D (human)", "residual activity", 90.5),
    ("Nc1nc(Nc2ccc(S(N)(=O)=O)cc2)nn1C(=O)c1c(F)cccc1F", "CSNK1D (human)", "residual activity", 94.5),
    ("CS(=O)c1ccc(-c2nc(-c3ccc(F)cc3)c(-c3ccncc3)[nH]2)cc1 (centres undefined)", "CSNK1D (human)", "residual activity", 13.9),
    ("O=c1cc(-c2cccc3c2Sc2ccccc2S3)oc(N2CCOCC2)c1", "CSNK1D (human)", "residual activity", 106),
]

The molecule Oc1ccc(-c2nc(-c3ccc(F)cc3)c(-c3ccncc3)[nH]2)cc1 showed residual activity equal to 16.8

For reference, reported residual activity for CCN1/C(=C/C(C)=O)Sc2ccc(OC)cc21 stands at 54.2

O=C1Nc2cc(Br)ccc2/C1=C1/Nc2ccccc2/C1=N\O has a reported residual activity of 85.4

Summary for this molecule, CSc1nc(-c2ccc(F)cc2)c(-c2ccnc(NC(C)c3ccccc3)c2)[nH]1 (centres undefined) : residual activity is 41.9

Per the record, Cc1ccc(NC(=O)c2ccc(CN3CCN(C)CC3)cc2)cc1Nc1nc(-c2cccnc2)cs1 has residual activity of 92.7
